// values below are reported KIDNEY_L
# Organism: Rattus norvegicus
# PROTOCOL: Open TG-GATES - Regimen: Daily Repeat
# Assay type: toxicity, organism-based, Sprague-Dawley
# Parameters: regimen Daily Repeat, gender Male, age 6 weeks
# DETAILS: in vivo, po, 1000 mg/kg, […], tissue Kidney, route gavage, dose level High, time 14 day

- COMPOUND: "COC(=O)C1=C(C)NC(C)=C(C(=O)OC)C1c1ccccc1[N+](=O)[O-] [NIFEDIPINE]"
  UNIT LABEL: "g"
  KIDNEY_L: 1.2
- COMPOUND: "CCOc1ccc(NC(C)=O)cc1 [PHENACETIN]"
  UNIT LABEL: "g"
  KIDNEY_L: 1.3
- COMPOUND: "O=C(OC[C@H]1O[C@@H](OC(=O)c2cc(O)c(O)c(OC(=O)c3cc(O)c(O)c(O)c3)c2)[C@H](OC(=O)c2cc(O)c(O)c(OC(=O)c3cc(O)c(O)c(O)c3)c2)[C@@H](OC(=O)c2cc(O)c(O)c(OC(=O)c3cc(O)c(O)c(O)c3)c2)[C@@H]1OC(=O)c1cc(O)c(O)c(OC(=O)c2cc(O)c(O)c(O)c2)c1)c1cc(O)c(O)c(OC(=O)c2cc(O)c(O)c(O)c2)c1 [TANNIC ACID]"
  UNIT LABEL: "g"
  KIDNEY_L: 1.1
